Values from patent US9103830B2

Molecular target: trypsin (Bos taurus)
Sequence (P00760 24-246): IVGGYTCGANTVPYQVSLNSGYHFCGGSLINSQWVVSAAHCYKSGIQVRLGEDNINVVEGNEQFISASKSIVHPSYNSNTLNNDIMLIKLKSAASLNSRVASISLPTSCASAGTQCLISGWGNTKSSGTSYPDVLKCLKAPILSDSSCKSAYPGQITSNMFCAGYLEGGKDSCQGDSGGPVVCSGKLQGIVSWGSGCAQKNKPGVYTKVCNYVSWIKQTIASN
QUANTITY_MEASURED: Ki

trypsin (Bos taurus) data for CC(=O)N[C@@H](CC(C)C)C(=O)N[C@@H](CC(C)C)C(=O)N[C@H](C=O)CCCNC(=N)N ; its Ki: 31.1 nM
